- System: third stage larvae of Haemonchus contortus
- TEST_SUMMARY: Haemonchus contortus, Larvae Stage 3 (HcL3) In Vitro Assay
- Format: cell-based
- EXPERIMENTAL_CONTEXT: Haemonchus contortus, 96 h, read-out: HcL3 MED, Minimum Effective Dose, H. contortus third stage larvae, approximately 96 hours
MEASURED_PARAMETER: minimal effective concentration

Task: Param item = CC(C)C[C@H]1C(=O)O[C@H](Cc2ccc(Cc3snnc3C(C)C)cc2)C(=O)N(C)[C@@H](CC(C)C)C(=O)O[C@H](C)C(=O)N(C)[C@@H](CC(C)C)C(=O)O[C@H](Cc2ccc(Cc3snnc3C(C)C)cc2)C(=O)N(C)[C@@H](CC(C)C)C(=O)O[C@H](C)C(=O)N1C [Example 3-228] ; retrieve measured minimal effective concentration.
Result: > 100 µM

Task: Try this molecule too: CC(C)C[C@H]1C(=O)O[C@H](Cc2ccc(Cc3cncc(F)c3)cc2)C(=O)N(C)[C@@H](CC(C)C)C(=O)O[C@H](C)C(=O)N(C)[C@@H](CC(C)C)C(=O)O[C@H](Cc2ccc(Cc3cncc(F)c3)cc2)C(=O)N(C)[C@@H](CC(C)C)C(=O)O[C@H](C)C(=O)N1C [Example 3-194]
Result: > 100 µM

Task: Try this molecule too: CC(C)C[C@H]1C(=O)O[C@H](Cc2ccc(Cc3cnn(CCF)c3)cc2)C(=O)N(C)[C@@H](CC(C)C)C(=O)O[C@H](C)C(=O)N(C)[C@@H](CC(C)C)C(=O)O[C@H](Cc2ccc(Cc3cnn(CCF)c3)cc2)C(=O)N(C)[C@@H](CC(C)C)C(=O)O[C@H](C)C(=O)N1C [Example 3-286]
Result: > 10 µM

Task: Try this molecule too: COc1cccc(Cc2ccc(C[C@H]3OC(=O)[C@H](CC(C)C)N(C)C(=O)[C@@H](C)OC(=O)[C@H](CC(C)C)N(C)C(=O)[C@@H](Cc4ccc(Cc5cccc(OC)c5)cc4)OC(=O)[C@H](CC(C)C)N(C)C(=O)[C@@H](C)OC(=O)[C@H](CC(C)C)N(C)C3=O)cc2)c1 [Example 1-5]
Result: > 100 µM
